test system: HOP-62 (Lung Adenocarcinoma); experiment: combination Emax (second highest fraction inhibited in the dose matrix, 72 h); higher = more inhibition; extreme values may be limits of the assay
Attribute Measured: combination Emax
Just the number, please, no unit after it.

Below: 5 compounds and their reported combination Emax.
{"Compound": "CCN(CCO)CCCOc1ccc2c(Nc3cc(CC(=O)Nc4cccc(F)c4)[nH]n3)ncnc2c1 [AZD2811] + C[C@@H]1COCCN1C2=NC(=NC(=C2)C3(CC3)[S@](=N)(=O)C)C4=C5C=CNC5=NC=C4 [AZD6738] (first compound max 1 µM, 7x7, partner max 10 µM)", "combination Emax": 0.436}
{"Compound": "Cc1c2c(nn1C)CSCc1cc(n(C)n1)CSc1cc(c3ccccc3c1)OCCCc1c(C(=O)O)n(C)c3c-2c(Cl)ccc13 [AZD5991] + CC1(C)CCC(CN2CCN(c3ccc(C(=O)NS(=O)(=O)c4ccc(NCC5CCOCC5)c([N+](=O)[O-])c4)c(Oc4cnc5[nH]ccc5c4)c3)CC2)=C(c2ccc(Cl)cc2)C1 [Venetoclax] (first compound max 1 µM, 7x7, partner max 1 µM)", "combination Emax": 0.0765}
{"Compound": "CC(=O)Nc1cccc(-n2c(=O)n(C3CC3)c(=O)c3c(Nc4ccc(I)cc4F)n(C)c(=O)c(C)c32)c1 [Trametinib] + Cc1nc(-c2cn3c(n2)-c2ccc(-c4cnn(C(C)(C)C(N)=O)c4)cc2OCC3)n(C(C)C)n1 [Taselisib] (first compound max 1 µM, 7x7, partner max 10 µM)", "combination Emax": 0.778}
{"Compound": "NC1(C(=O)N[C@@H](CCO)c2ccc(Cl)cc2)CCN(c2ncnc3[nH]ccc23)CC1 [Capivasertib] + C[C@@H]1COCCN1C2=NC(=NC(=C2)C3(CC3)[S@](=N)(=O)C)C4=C5C=CNC5=NC=C4 [AZD6738] (first compound max 10 µM, 7x7, partner max 10 µM)", "combination Emax": 0.652}
{"Compound": "COc1nnc2ccc(N3CCC(c4ccc(OCCN5CCN(C)C(=O)[C@H]5C)cc4)CC3)nn12 [AZD5153] + CC1(C)CCC(CN2CCN(c3ccc(C(=O)NS(=O)(=O)c4ccc(NCC5CCOCC5)c([N+](=O)[O-])c4)c(Oc4cnc5[nH]ccc5c4)c3)CC2)=C(c2ccc(Cl)cc2)C1 [Venetoclax] (first compound max 1 µM, 7x7, partner max 1 µM)", "combination Emax": 0.557}

IN: Field: combination Emax (HOP-62 (Lung Adenocarcinoma)). Entry: CCN(CCO)CCCOc1ccc2c(Nc3cc(CC(=O)Nc4cccc(F)c4)[nH]n3)ncnc2c1 [AZD2811] + C=CCn1c(=O)c2cnc(Nc3ccc(N4CCN(C)CC4)cc3)nc2n1-c1cccc(C(C)(C)O)n1 [AZD1775] (first compound max 1 µM, partner max 1 µM)
OUT: 0.161

IN: Field: combination Emax (HOP-62 (Lung Adenocarcinoma)). Entry: Cn1cnc2c(F)c(Nc3ccc(Br)cc3Cl)c(C(=O)NOCCO)cc21 [Selumetinib] + CC(C)n1c(=O)n(C)c2cnc3cc(F)c(-c4ccc(OCCCN5CCCCC5)nc4)cc3c21 [AZD1390] (first compound max 10 µM, 7x7, partner max 0.3 µM)
OUT: 0.409

----------
system: TGW (Neuroblastoma); assay: Bliss excess, mean over the matrix (fraction); higher = more synergy;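 note: after 72 h of two-drug dosing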
Recorded Bliss excess, one value per entry.
Just the number, please, no unit after it.

Below: 5 compounds and their reported Bliss excess.
{"Compound": "Cc1c2c(nn1C)CSCc1cc(n(C)n1)CSc1cc(c3ccccc3c1)OCCCc1c(C(=O)O)n(C)c3c-2c(Cl)ccc13 [AZD5991] + C1CN(CCC1(C(=O)N[C@@H](CCO)C2=CC=C(C=C2)Cl)N)C3=NC=NC4=C3C=CN4 [Capivasertib] (first compound max 1 µM, 7x7, partner max 3 µM)", "Bliss excess": 0.0078}
{"Compound": "CN(CCO)CC[C@H](CSc1ccccc1)Nc1ccc(S(=O)(=O)NC(=O)c2ccc(N3CCC([C@@H](O)c4ccccc4-c4ccc(Cl)cc4)CC3)cc2)cc1S(=O)(=O)C(F)(F)F [AZD4320] + Cc1cc2ncnn2cc1Nc1ncc2c(n1)n(C1CCOCC1)c(=O)n2C [AZD7648] (first compound max 1 µM, 7x7, partner max 10 µM)", "Bliss excess": 0.0125}
{"Compound": "COc1nnc2ccc(N3CCC(c4ccc(OCCN5CCN(C)C(=O)[C@H]5C)cc4)CC3)nn12 [AZD5153] + CCN(CCO)CCCOc1ccc2c(Nc3cc(CC(=O)Nc4cccc(F)c4)[nH]n3)ncnc2c1 [AZD2811] (first compound max 1 µM, 7x7, partner max 1 µM)", "Bliss excess": -0.109}
{"Compound": "CC1(C)CCC(CN2CCN(c3ccc(C(=O)NS(=O)(=O)c4ccc(NCC5CCOCC5)c([N+](=O)[O-])c4)c(Oc4cnc5[nH]ccc5c4)c3)CC2)=C(c2ccc(Cl)cc2)C1 [Venetoclax] + C1CN(CCC1(C(=O)N[C@@H](CCO)C2=CC=C(C=C2)Cl)N)C3=NC=NC4=C3C=CN4 [Capivasertib] (first compound max 1 µM, 7x7, partner max 3 µM)", "Bliss excess": -0.0211}
{"Compound": "C[C@@H]1COCCN1c1cc(C2([S@](C)(=N)=O)CC2)nc(-c2ccnc3[nH]ccc23)n1 [AZD6738] + O=C(c1cc(Cc2n[nH]c(=O)c3ccccc23)ccc1F)N1CCN(C(=O)C2CC2)CC1 [Olaparib] (first compound max 10 µM, 7x7, partner max 10 µM)", "Bliss excess": -0.0469}

IN: Field: Bliss excess (TGW (Neuroblastoma)). Entry: CCN(CCO)CCCOc1ccc2c(Nc3cc(CC(=O)Nc4cccc(F)c4)[nH]n3)ncnc2c1 [AZD2811] + C=CCn1c(=O)c2cnc(Nc3ccc(N4CCN(C)CC4)cc3)nc2n1-c1cccc(C(C)(C)O)n1 [AZD1775] (first compound max 1 µM, partner max 1 µM)
OUT: -0.0083

IN: Field: Bliss excess (TGW (Neuroblastoma)). Entry: Cc1c2c(nn1C)CSCc1cc(n(C)n1)CSc1cc(c3ccccc3c1)OCCCc1c(C(=O)O)n(C)c3c-2c(Cl)ccc13 [AZD5991] + Nc1ccn([C@@H]2O[C@H](CO)[C@@H](O)C2(F)F)c(=O)n1 [Gemcitabine] (first compound max 1 µM, 7x7, partner max 0.3 µM)
OUT: 0.007
